Sourced from PubChem BioAssay (NCI)

tested on: SF-539 CNS; assay: NCI tumour cell line growth inhibition, 48 h
READOUT TYPE: TGI

{"COMPOUND": "CC(C)=CCC/C(C)=C/CC/C(C)=C/CC/C=C(\\C)CC/C=C(\\C)CCC1SC1(C)C (stereo unspecified)", "TGI": "> 100 µM"}
{"COMPOUND": "Nc1ncnc2c1ncn2[C@@H]1C[C@H]1CO", "TGI": "> 100 µM"}
{"COMPOUND": "CCCn1cc(C2=C(c3cn(C)c4ccccc34)C(=O)NC2=O)c2ccccc21", "TGI": "2.8 µM"}

Now for the compound whose TGI we want.
Indicate the recorded TGI value for this compound: CSC(=NC1CC(n2cc(C)c(=O)[nH]c2=O)OC1CO)NC#N (stereo unspecified) > 100 µM

----------
tested on: OVCAR-5 ovarian; test: NCI tumour cell line growth inhibition, 48 h
READOUT TYPE: GI50

Please review the following examples before continuing.
{"MOLECULE": "COc1ccc(-c2cc(-c3ccc(O)cc3)nc3nc(=S)[nH]c(N)c23)cc1", "OBSERVED": "32 µM"}
{"MOLECULE": "COc1ccc(S(=O)(=O)N2CCN(C(=O)OCc3ccccc3)CC2C(=O)NO)cc1 (stereo not given)", "OBSERVED": "> 25 µM"}
{"MOLECULE": "O=C(/C=C/c1ccccn1)c1ccccc1O", "OBSERVED": "2.43 µM"}
{"MOLECULE": "O=C(CCc1nnc(-c2c(Cl)cccc2Cl)o1)c1nc2ccccc2[nH]1", "OBSERVED": "7.82 µM"}
{"MOLECULE": "C=C1C(=O)O[C@H]2[C@H]1CC/C(COC(=O)/C=C\\C(=O)NCc1ccc(Cn3c(=O)sn(-c4ccc(OC)cc4)c3=O)cc1)=C\\CC[C@@]1(C)O[C@@H]21", "OBSERVED": "0.825 µM"}
{"MOLECULE": "COc1ccc(C(=O)C(c2ccc(OC)cc2)C2C(=O)Oc3ccccc32)cc1 (stereo not given)", "OBSERVED": "> 100 µM"}
{"MOLECULE": "CCOCCc1c(O)nc(SC)[nH]c1=O", "OBSERVED": "> 100 µM"}
{"MOLECULE": "CCOC(=O)C1=C(N)Oc2c(sc3c(C)cccc23)C1c1ccc(Cl)cc1 (stereo not given)", "OBSERVED": "4.03 µM"}
{"MOLECULE": "O=C(N/N=C/c1coc2ccc(Cl)cc2c1=O)c1ccncc1", "OBSERVED": "> 100 µM"}

Indicate the recorded GI50 value for this molecule: C[As](C)Sc1ccnc(S[As](C)C)n1 19.6 µM

----------
system: OVCAR-8 ovarian; assay: NCI tumour cell line growth inhibition, 48 h; in the data active means GI50 below about 0.43 µM; inactive means the rest
Form entry, call: pick from active, inactive

Solved cases below.
{"COMPOUND": "C=C1C(=O)O[C@H]2[C@H]1CC/C(COC(=O)/C=C\\C(=O)NCc1ccc(Cn3c(=O)sn(-c4ccc(OC)cc4)c3=O)cc1)=C\\CC[C@@]1(C)O[C@@H]21", "LABEL": "inactive"}
{"COMPOUND": "C[As](C)Sc1ccnc(S[As](C)C)n1", "LABEL": "inactive"}
{"COMPOUND": "Fc1ccc(CNc2c3ccccc3nc3ccccc23)cc1", "LABEL": "inactive"}
{"COMPOUND": "CN(C)c1ccc(/C=C(\\C#N)c2cc3ccccc3n2C)cc1", "LABEL": "active"}
{"COMPOUND": "O=C(CCc1nnc(-c2c(Cl)cccc2Cl)o1)c1nc2ccccc2[nH]1", "LABEL": "inactive"}

Turning to the following compound.
Which result was noted for this compound in the test: CC1(C)Cc2cccc(OCC(O)CN3CCN(c4ccc(F)cc4)CC3)c2O1 (centres undefined) inactive
